Data provenance: paper PMC2586830

Molecular target: the molecule itself
Assay: FRET or BRET
observation-type: binding result

CFP–QseB / YFP–QseB, phosphorylated (natural protein, phosphorylated in vitro with phosphoramidate and MgSO4 (conserved aspartate of the receiver domain; residue number not given)) MRILLIEDDMLIGDGIKTGLSKMGFSVDWFTQGRQGKEALYSAPYDAVILDLTLPGMDGRDILREWREKGQREPVLILTARDALAERVEGLRLGADDYLCKPFALIEVAARLEALMRRTNGQASNELRHGNVMLDPGKRIATLAGEPLTLKPKEFALLELLMRNAGRVLSRKLIEEKLYTWDEEVTSNAVEVHVHHLRRKLGSDFIRTVHGIGYTLGEK	binds
CFP–CusR / YFP–CusR, phosphorylated (natural protein, phosphorylated in vitro with phosphoramidate and MgSO4 (conserved aspartate of the receiver domain; residue number not given)) MKLLIVEDEKKTGEYLTKGLTEAGFVVDLADNGLNGYHLAMTGDYDLIILDIMLPDVNGWDIVRMLRSANKGMPILLLTALGTIEHRVKGLELGADDYLVKPFAFAELLARVRTLLRRGAAVIIESQFQVADLMVDLVSRKVTRSGTRITLTSKEFTLLEFFLRHQGEVLPRSLIASQVWDMNFDSDTNAIDVAVKRLRGKIDNDFEPKLIQTVRGVGYMLEVPDGQ	binds
CFP–TorR / YFP–TorR, phosphorylated (natural protein, phosphorylated in vitro with phosphoramidate and MgSO4 (conserved aspartate of the receiver domain; residue number not given)) MPHHIVIVEDEPVTQARLQSYFTQEGYTVSVTASGAGLREIMQNQSVDLILLDINLPDENGLMLTRALRERSTVGIILVTGRSDRIDRIVGLEMGADDYVTKPLELRELVVRVKNLLWRIDLARQAQPHTQDNCYRFAGYCLNVSRHTLERDGEPIKLTRAEYEMLVAFVTNPGEILSRERLLRMLSARRVENPDLRTVDVLIRRLRHKLSADLLVTQHGEGYFLAADVC	binds
